Biological target: T1, sRAGE (V-C1-C2) lot LP08062 (human, UniProt Q15109 23-331, limits assumed)
T1 construct: domain: V-C1-C2; also called Human RAGE; LP08062 (Rage)
T1 sequence (Q15109 23-331 limits assumed): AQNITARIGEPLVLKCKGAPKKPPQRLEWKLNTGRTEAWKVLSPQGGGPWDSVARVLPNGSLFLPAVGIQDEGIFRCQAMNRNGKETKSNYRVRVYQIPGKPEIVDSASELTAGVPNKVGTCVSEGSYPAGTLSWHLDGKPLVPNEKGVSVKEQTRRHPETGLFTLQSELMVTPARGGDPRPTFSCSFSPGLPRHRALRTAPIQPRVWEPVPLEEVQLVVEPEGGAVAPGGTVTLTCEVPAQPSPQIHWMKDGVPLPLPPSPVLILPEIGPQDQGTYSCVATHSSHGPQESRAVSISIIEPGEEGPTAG
Assay: SPR (Biacore), mAb captured on anti-mouse Fc, sRAGE 15 nM, Langmuir 1:1
OBSERVABLE: kon (M⁻¹ s⁻¹)
Reply numerically in M⁻¹ s⁻¹, unit not repeated.

A selection of reference data follows.
BINDER	kon, M⁻¹ s⁻¹
210 RAGE-1 (antibody, V domains shown, Anti-RAGE monoclonal antibody from a hybridoma, captured by anti-mouse Fc; also called Protein 210 RAGE-1) VH: EIQLQQTGPELVKPGASVKISCKASGYSFTDYIMVWVKQSHGKSLEWIGTINPYYGSTSYNLKFKGKATLTVDKSSSTANMQLNSLTSEDSAVYYCARLRLYAMDYWGQGTSVTVSS VL: QAVVTQESALTTSPGETVTLTCRSSTGAVTTSNYANWVQEKPDHLFTGLIGGTNNRAPGVPARFSGSLIGDKAALTITGAQTEDEAIYFCALWYSNHFWVFGGGTKLTVL	3.88e+06
529 RAGE-1 (antibody, V domains shown, Anti-RAGE monoclonal antibody from a hybridoma, captured by anti-mouse Fc) VH: EIQLQQTGPELVKPGASVKISCKASGYSFTDYIMLWVKQSHGKSLEWIGNINPYYGSTFYNLKFKGKATLTVDKSSSTAYMQLNSLTSEDSAVYYCARSDYWYFDVWGAGTTVTVSS VL: QAVVTQESALTTSPGETVTLTCRSSTGAVTTSNYANWVQEKPDHLFTGLIGGTNNRSPGVPARFSGSLIGDKAALTITGAQTEDEAIYFCALWYSNHLVFGGGTKLTVL	3.06e+06

What kon value was documented for this binder, 259 RAGE-1 (antibody, V domains shown, Anti-RAGE monoclonal antibody from a hybridoma, captured by anti-mouse Fc; also called Protein 259 RAGE -1) VH: QVQLQQSGAELVRPGTSVKVSCKASGYAFTNYLIDWVNQRPGQGLEWIGVINPGSGGTNYNEKFTGKATLTADKSSSTAYMQLSSLTSDDSAVYFCARRRVDTMDYWGQGTSVTVSS VL: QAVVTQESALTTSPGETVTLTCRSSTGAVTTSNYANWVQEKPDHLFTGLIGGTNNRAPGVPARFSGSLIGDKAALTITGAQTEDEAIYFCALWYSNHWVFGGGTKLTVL ?
4.34e+06

Moving on to the next binder: 326 RAGE-1 (antibody, V domains shown, Anti-RAGE monoclonal antibody from a hybridoma, captured by anti-mouse Fc; also called LP08137; Protein 326 RAGE-1) VH: EVKLVESGGGLVKPGGSLKLSCAASGFAFSSYDMSWVRQTPEKRLEWVATISSGGSYTSYPDSVQGRFTISRDNARNTLYLQMSSLRSEDTALYYCASSQLPPYAMDYWGQGTSVTVSS VL: DIVMTQSQKFMSTSVGDRVSITCKASQNVGTAVAWYQQKPGQSPKLLIYSASNRYTGVPDRFTGSGSGTDFTLTISNMQSEDLADYFCQQYSSYPLLTFGAGTKLELK
2.87e+06
